procedure summary: Quantitative High-Throughput drug screen in 47 multiple myeloma cell lines against the NCATS MIPE library collection: PE2_PLB cell viability assay (AID 1919869); further: nearly all actives have a fitted effect of over 35% in size
experimental context: PE2_PLB myeloma cells viability, ATP luminescence, 48 h; series mostly up to 45.8 µM
Results filed as inconclusive are left out. Calls of active or inactive are those of the source. The call rests on the fitted dose curve; in most records, active means well fitted cell-killing curve with a large enough effect; inconclusive means small, poorly fitted or top-dose-only effect, or effect the other way; inactive means no such curve, though single readings can be large or run the other way.
Classes used: active, inactive

1. O=C(NCCCNc1nc(Nc2cccc(NC(=O)N3CCCC3)c2)ncc1I)c1cccs1 :: active
2. CN1CCN(Cc2ccc(NC(=O)Nc3ccc(Oc4cc(NC(=O)C5CC5)ncn4)cc3)cc2C(F)(F)F)CC1 :: active
3. OCc1ccc(-c2ccc(-c3ccc(CO)s3)o2)s1 :: active
4. CCCNC(=O)Nc1ccc(Oc2ncnc3cc(OC)c(OC)cc23)cc1Cl :: inactive
5. C=C1C(=CC=C2CCC[C@]3(C)[C@@H]([C@H](C)C=C[C@H](C)C(C)C)CC[C@@H]23)C[C@@H](O)C[C@@H]1O :: active
6. CC=C1NC(=O)[C@H]2CSSCCC=C[C@H](CC(=O)N[C@H](C(C)C)C(=O)N2)OC(=O)[C@H](C(C)C)NC1=O :: active
7. O=C(Nc1cc(C(F)(F)F)cc(C(F)(F)F)c1)c1cc(Cl)ccc1O :: active
8. COC(=O)c1ccc2c(C(=Nc3ccc(N(C)C(=O)CN4CCN(C)CC4)cc3)c3ccccc3)c(O)[nH]c2c1 :: active
9. Nc1ncnc2c1c(-c1cccc(OCc3ccccc3)c1)cn2C1CC(CN2CCCC2)C1 (stereo not drawn) :: active
10. CC(C)(C)OC(=O)Nc1ccc(-c2cc(C(=O)NCCCCCCC(=O)NO)no2)cc1 :: active
11. Cc1c(CN2CCN(S(C)(=O)=O)CC2)sc2c(N3CCOCC3)nc(-c3cnc(N)nc3)nc12 :: active
12. CC(NCc1ccc2c(c1)nc(NC(=O)c1ccc(-c3cn[nH]c3)s1)n2CC(C)(C)O)C(C)(C)C (stereo not drawn) :: active
13. Cc1ccc(NC(=O)C2(c3ccc4c(c3)OC(F)(F)O4)CC2)nc1-c1cccc(C(=O)O)c1 :: active
14. CNc1nccc(-c2cccnc2Oc2cc(C(=O)Nc3cccc(C(F)(F)F)c3)ccc2C)n1 :: active
15. Cc1cc(Nc2cc(NC(=O)c3c(Cl)cccc3Cl)ccn2)nc(N)n1 :: active
16. C1=CCOCc2cc(ccc2OCCN2CCCC2)Nc2nccc(n2)-c2cccc(c2)OCC1 :: active
17. COC(=O)C1=C(C)NC(C)=C(C(=O)OCCN2CCN(C(c3ccccc3)c3ccccc3)CC2)C1c1cccc([N+](=O)[O-])c1 (stereo not drawn) :: inactive
18. CNC(=O)c1nn(C)c2c1C(C)(C)Cc1cnc(Nc3ccc(N4CCN(C)CC4)cc3)nc1-2 :: active

----------
procedure summary: Quantitative High-Throughput drug screen in 47 multiple myeloma cell lines against the NCATS MIPE library collection: L363_DSMZ cell viability assay (AID 1918984); further: nearly all actives have a fitted effect of over 40% in size
experimental context: L363 myeloma viability, CellTiter-Glo ATP luminescence, 48 h; series mostly up to 45.8 µM
Records with an inconclusive call do not appear. The source made the active and inactive calls. The call rests on the fitted dose curve; in most records, active means well fitted cell-killing curve with a large enough effect; inconclusive means small, poorly fitted or top-dose-only effect, or effect the other way; inactive means no such curve, though single readings can be large or run the other way.
Classes used: YES = active, NO = inactive

1. COc1cccc2c(NCc3ccccc3)nc(-n3c(N)nc4ccccc43)nc12 :: YES
2. COc1cc(C(C)C)c2c(c1)S(=O)(=O)N(COc1cc(=O)n3cccc(OCCN4CCCCC4)c3n1)C2=O :: YES
3. COC(=O)C1=C(C)NC(C)=C(C(=O)OCCN2CCN(C(c3ccccc3)c3ccccc3)CC2)C1c1cccc([N+](=O)[O-])c1 (centres undefined) :: NO
4. Cc1ccc(C(=O)Nc2cccc(C(F)(F)F)c2)cc1-c1ccc2nc(NCCN3CCOCC3)ncc2c1 :: YES
